Biological target: T1, SRA.mmh
T1 construct: also called SRA.mmh (CHO)
T1 antigen: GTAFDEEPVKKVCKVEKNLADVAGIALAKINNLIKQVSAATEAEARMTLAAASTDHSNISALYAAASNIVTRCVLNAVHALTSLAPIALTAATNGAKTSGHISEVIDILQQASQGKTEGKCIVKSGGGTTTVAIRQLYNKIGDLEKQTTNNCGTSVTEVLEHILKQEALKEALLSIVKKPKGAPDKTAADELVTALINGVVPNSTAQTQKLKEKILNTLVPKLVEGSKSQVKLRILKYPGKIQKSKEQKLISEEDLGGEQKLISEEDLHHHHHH
Assay: Octet, SRA.mmh captured on anti-Penta-His tips, mAb-1 at 50 ug/mL for 5 min, 25 C, pH 7.4
property measured: 50 ug/mL mAb 1 Bound (nm)
Answers are plain numbers, in nm.

Record excerpt, results attached:
- binder: "H1H10031P (antibody, V domains shown, Fully human antibody with human IgG1 Fc (prefix H1H)) VH: EVQLVESGGNVVRPGGSLRLSCSGSGFAFENYGMSWVRQGPGKGLEWVSNINWNGGSLNYVDSVKGRFTISRDNAKNSLYLQMNSLRAEDTALYYCARVIVYGMDVWGQGTTVTVSS VL: DIQMTQSPSSLSASVGDRVTITCRASQGIRNGLGWFQQKPGKAPKRLIYATSSLQSGVPSRFSGSGSGTEFTLTISSLQPEDFATYYCLQSNSYPWTFGQGTKVEIK"
  50 ug/mL mAb 1 Bound (nm): 1.59
- binder: "H2aM10201N (antibody, V domains shown, Chimeric antibody, human variable domains and mouse constant domains (mouse Fc, prefix H2aM); also called H2M10201N) VH: QVQLLESGGGVVQPGKSLRLSCVASGSIFSIYGMNWVRQAPGKGLEWVASVSSDGSAKFYADSVKGRFTISRDNSNDTLFLQMTSLRAEDTAVYYCAKTLWNYLFDSWGQGTLVTVSS VL: ENVLTQSPDTLSLSPGERATLSCRASQSITSNYLAWYQQKPGQTPRLLISFTSRRATGIPDRFSGSGSGTVFTLTISRLEPEDFAVYYCQQYGTSLTFGGGAKVEIR"
  50 ug/mL mAb 1 Bound (nm): 1.27
- binder: "H2aM10285N (antibody, V domains shown, Chimeric antibody, human variable domains and mouse constant domains (mouse Fc, prefix H2aM); also called H2M10285N) VH: QVQLVQSGAEVKKPGSSVKVSCKASGGTFTNFAISWVRQAPGLGLEWMGGIIPFVGTATYEQKFQGRVSITADESTRTAYMELSSLRYDDTAVYYCARWFSGSGGDFDYWGQGTLVTVSS VL: AIQMTQSPSSLSASVGDRVTITCRASQGIGNDLGWYQQRRGTAPKLLIYAASSLQSGVPSRFSGSGSGTDFTLTISSLQPEDFATYYCLQDFTFPRTFGQGTKVEIK"
  50 ug/mL mAb 1 Bound (nm): 1.53

# return 50 ug/mL mAb 1 Bound (nm) for each item in the list
1. H1H10056P (antibody, V domains shown, Fully human antibody with human IgG1 Fc (prefix H1H)) VH: QVQLVESGGGVVQPGRSLRLSCSASGFTFSLYGMHWIRQAPGKGLEWVAVISYDGSNTYYGDSVKGRFTISRDNSKNTLYLQMNSLRTEDTAIYYCAKVYNWNYLFDYWGQGTLVTVSS VL: EIVLTQSPDTLSLSPGERATLSCRASQNVNNNFLAWYQQKPGQAPRLLIYGASSRATDIPERFSGSGSGTDFTLTISRLEPEDFAVYYCLHYVNSRTFGQGTKVEIK
2. H2bM10093N (antibody, V domains shown, Chimeric antibody, human variable domains and mouse constant domains; also called H2aM10093N; H2M10093N) VH: EVQLVESGGGLVKPGGSLRLSCVASGFTLSGYSMNWVRQAPGKGLEWVSSISTSSSYIYYADSVQGRFTISRDNAKNSLYLQMNSLRAEDTAVYYCVRKGANWIYFDYWGQGTLVTVSS VL: DIQMTQSPSSVSASVGDRVTITCRASQGISSLLAWFQQKPGKAPNLLIYAASSLQSGVPSRFSGSGSGTDFTLTISSLQPEDFATYYCQQAKSFPFTFGPGTKVDIK
3. H1H10069P (antibody, V domains shown, Fully human antibody with human IgG1 Fc (prefix H1H)) VH: QVQLQESGPGLVKPSETLSLTCSVSGGSFTNYYWSWIRQPPGKGLEWIGSVFYSGTTNYNPSLQSRVTLSIETSKNQFSLRLNSVTAADTAVYYCARDQGAAALDYWGQGTLVTVSS VL: DIQMTQSPSTLSASVGDRLTITCRASQSINNWLAWYQQKPGKAPKLLIYKASNLESGVPSRFSGSGSGTEFTLTISNLQPDDFATYYCQQYNSFFLTFGGGTKVEIK

[1.3, 1.48, 1.61]
